assay: Unbound brain concentration in P-gp knock out Sprague-Dawley rat at 5 mg/ml/kg, po measured upto 4 hrs by LC-MS analysis; conditions: in vivo
property_label: Fu
Would you mind answering with just the numeric figure?

// worked examples, Fu included
CN(C)CCc1c[nH]c2ccc(C[C@H]3COC(=O)N3)cc12 [ZOLMITRIPTAN] | 1
COc1ccc(CCN2CCC(Nc3nc4ccccc4n3Cc3ccc(F)cc3)CC2)cc1 [ASTEMIZOLE] | 0.004

Q: // returns reported Fu for input CC[C@H]1OC(=O)[C@H](C)[C@@H](O[C@H]2C[C@@](C)(OC)[C@@H](O)[C@H](C)O2)[C@H](C)[C@@H](O[C@@H]2O[C@H](C)C[C@H](N(C)C)[C@H]2O)[C@](C)(OC)C[C@@H](C)C(=O)[C@H](C)[C@@H](O)[C@]1(C)O [CLARITHROMYCIN]
A: 0.113

Data origin: ChEMBL document CHEMBL4823245
